molecular target: AhR (Homo sapiens, UniProt P35869); assay: In Vitro Assay 1: XRE-luciferase reporter assay, antagonism in human cell line (HepG2); settings: Assay 1: AhR-Luc Human Antagonism (IC50, nM), values marked *: kynurenine 50 μM, 6 hours
Sequence (P35869 11-848): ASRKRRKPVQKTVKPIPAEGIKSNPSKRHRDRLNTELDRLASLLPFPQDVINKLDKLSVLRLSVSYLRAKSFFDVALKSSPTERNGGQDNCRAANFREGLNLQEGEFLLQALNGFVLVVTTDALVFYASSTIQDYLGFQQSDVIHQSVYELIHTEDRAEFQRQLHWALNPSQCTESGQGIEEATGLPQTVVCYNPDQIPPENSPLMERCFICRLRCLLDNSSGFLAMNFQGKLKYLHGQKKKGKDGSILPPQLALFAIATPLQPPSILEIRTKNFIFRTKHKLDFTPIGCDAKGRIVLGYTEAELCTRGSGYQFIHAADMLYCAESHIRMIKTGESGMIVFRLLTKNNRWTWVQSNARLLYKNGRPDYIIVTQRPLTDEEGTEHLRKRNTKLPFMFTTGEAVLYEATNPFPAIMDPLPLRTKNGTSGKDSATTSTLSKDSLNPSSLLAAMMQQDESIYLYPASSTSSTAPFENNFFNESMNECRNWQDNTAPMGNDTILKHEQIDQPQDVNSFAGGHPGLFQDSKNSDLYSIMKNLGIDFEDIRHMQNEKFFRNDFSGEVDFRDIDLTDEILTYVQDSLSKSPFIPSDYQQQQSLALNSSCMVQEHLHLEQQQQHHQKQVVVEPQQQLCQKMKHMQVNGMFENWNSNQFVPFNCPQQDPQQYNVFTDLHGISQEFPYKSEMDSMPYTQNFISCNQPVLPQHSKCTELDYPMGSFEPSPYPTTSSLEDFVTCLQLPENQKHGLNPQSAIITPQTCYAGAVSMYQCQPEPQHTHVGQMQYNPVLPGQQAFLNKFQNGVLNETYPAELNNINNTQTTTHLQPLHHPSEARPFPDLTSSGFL
assayReadout: IC50

Example cases with answers are listed next.
- molecule: "CO[C@H]1CN(C)C[C@@H]1Nc1cc(-c2ccc(Cl)cc2)nc(-c2cccnc2)n1"
  IC50: "> 1000 nM"
- molecule: "Clc1ccc(-c2cc(NCCN3CCNCC3)nc(-c3cccnc3)n2)cc1"
  IC50: "> 1000 nM"
- molecule: "N#CC1CCN(c2cc(-c3ccc(Cl)cc3)nc(-c3cccnc3)n2)C1 (centres unmarked)"
  IC50: "10 to 100 nM"
- molecule: "NCC1CCCCN1c1cc(-c2ccc(Cl)cc2)nc(-c2cccnc2)n1 (centres unmarked)"
  IC50: "> 1000 nM"
- molecule: "CCOc1ccccc1N1CCN(c2cc(-c3ccc(Cl)cc3)nc(-c3cccnc3)n2)CC1"
  IC50: "> 1000 nM"
- molecule: "OCCCC1CCN(c2cc(-c3ccc(Cl)cc3)nc(-c3cccnc3)n2)CC1"
  IC50: "< 10 nM"

# IC50 of `Clc1ccc(-c2cc(N3CCC(N4CCCC4)CC3)nc(-c3cccnc3)n2)cc1` = 100 to 1000 nM

# IC50 of `Cn1cc(-c2nc(-c3ccc(Cl)cc3)cc(N3CCN(CCO)CC3)n2)cn1` = 100 to 1000 nM

====

biological target: AhR (Homo sapiens, UniProt P35869); assay: In Vitro Assay 4: endogenous AhR activity assay (CYP1A1 and CYP1B1 mRNA, qRT-PCR, HepG2 cells); conditions: HepG2, read-out: CYP1A1 (% Inhibition)
assayReadout: inhibition at 0.123 µM (%)
Provide the reading as a plain figure in %.

- molecularString: "O[C@H]1CCN(c2cc(-c3ccc(Cl)cc3)nc(-c3cccnc3)n2)C1"
  valueMeasured: 91.6

# inhibition at 0.123 µM of `CC(=O)N1CCC(Nc2cc(-c3ccc(Cl)cc3)nc(-c3cccnc3)n2)CC1` = 41.8

# inhibition at 0.123 µM of `CC[C@H](CO)Nc1cc(-c2ccc(Cl)cc2)nc(-c2cccnc2)n1` = 60

# inhibition at 0.123 µM of `OCC1CCN(c2cc(-c3ccc(C(F)(F)F)cc3)nc(-c3cccnc3)n2)CC1` = 108

# inhibition at 0.123 µM of `OC[C@H]1CN(c2cc(-c3ccc(C(F)(F)F)cc3)nc(-c3cccnc3)n2)C[C@@H]1O` = 101

====

target: AhR (Homo sapiens); experiment: In Vitro Assay 1: XRE-luciferase reporter assay, antagonism in human cell line (HepG2); conditions: Assay 1: AhR-Luc Human Antagonism (IC50, nM), values marked *: kynurenine 50 μM, 6 hours
assayReadout: IC50

# IC50 of CN1CCCC1CCNc1cc(-c2ccc(Cl)cc2)nc(-c2cccnc2)n1 (stereo not shown) [Example 131] = > 1000 nM

====

target: AhR (Homo sapiens); test: In Vitro Assay 1: XRE-luciferase reporter assay, antagonism in human cell line (HepG2); details: Assay 1: AhR-Luc Human Antagonism (IC50, nM), unmarked values: kynurenine 200 μM, 6 hours
Overview of recorded IC50 for various compounds

Example cases with answers are listed next.
- compound: "O=S(=O)(CCO)N1CCN(c2cc(-c3ccc(Cl)cc3O)nc(-c3cccnc3)n2)CC1"
  IC50: "< 10 nM"
- compound: "CN(C)C1CN(c2cc(-c3ccc(Cl)cc3)nc(-c3cccnc3)n2)CCC1CO (centres unmarked)"
  IC50: "100 to 1000 nM"
- compound: "O[C@H]1CCN(c2cc(-c3ccc(Cl)cc3)nc(-c3ccccn3)n2)C1"
  IC50: "> 1000 nM"
- compound: "OCC1CCN(c2cc(-c3ccc(OC4CCCCO4)cc3)nc(-c3cccnc3)n2)CC1 (centres unmarked)"
  IC50: "10 to 100 nM"
- compound: "OCC1CCN(c2cc(-c3ccc4[nH]ncc4c3)nc(-c3cccnc3)n2)CC1"
  IC50: "100 to 1000 nM"
- compound: "O=S(=O)(C(F)F)N1CCN(c2cc(-c3ccc(Cl)cc3)nc(-c3cccnc3)n2)CC1"
  IC50: "10 to 100 nM"

# IC50 of CN(C)C1CC(O)CN(c2cc(-c3ccc(Cl)cc3)nc(-c3cccnc3)n2)C1 (centres unmarked) = 100 to 1000 nM

# IC50 of `OC[C@@H]1CCN(c2cc(-c3ccc(Cl)cc3)nc(-c3cccnc3)n2)C[C@@H]1F` = < 10 nM

# IC50 of `OC[C@H]1CCN(c2cc(-c3ccc(Cl)cc3)nc(-c3cccnc3)n2)C1` = < 10 nM

# IC50 of `O[C@H]1CCN(c2cc(-c3ccc(C(F)(F)F)cc3)nc(-c3cccnc3)n2)C1` = < 10 nM

====

target: AhR (Homo sapiens); experiment: In Vitro Assay 4: endogenous AhR activity assay (CYP1A1 and CYP1B1 mRNA, qRT-PCR, HepG2 cells); conditions: HepG2, read-out: CYP1B1 (% Inhibition)
assayReadout: inhibition at 0.123 µM
Dear colleague, please send the value followed by its unit.

Example cases with answers are listed next.
- molecularString: "O[C@H]1CCN(c2cc(-c3ccc(Cl)cc3)nc(-c3cccnc3)n2)C1"
  inhibition at 0.123 µM: "97.7%"
- molecularString: "CC(=O)N1CCC(Nc2cc(-c3ccc(Cl)cc3)nc(-c3cccnc3)n2)CC1"
  inhibition at 0.123 µM: "77.2%"
- molecularString: "O[C@H]1CCN(c2cc(-c3ccc(C(F)(F)F)cc3)nc(-c3cncc(F)c3)n2)C1"
  inhibition at 0.123 µM: "101%"
- molecularString: "COc1ccc(-c2cc(N3CCC(CO)CC3)nc(-c3cccnc3)n2)cc1"
  inhibition at 0.123 µM: "101%"

# inhibition at 0.123 µM of `O=C1CN(c2cc(-c3ccc(Cl)cc3)nc(-c3cccnc3)n2)CCN1` = 92.1%

# inhibition at 0.123 µM of `O=S(=O)(CCO)N1CCN(c2cc(-c3ccc(Cl)cc3)nc(-c3cccnc3)n2)CC1` = 101%

# inhibition at 0.123 µM of `OCC1CCN(c2cc(-c3ccc(Cl)cc3)nc(-c3cccnc3)n2)CC1` = 99.3%

====

biological target: AhR (Homo sapiens, UniProt P35869); experiment: In Vitro Assay 1: XRE-luciferase reporter assay, antagonism in human cell line (HepG2); settings: Assay 1: AhR-Luc Human Antagonism (IC50, nM), unmarked values: kynurenine 200 μM, 6 hours
assayReadout: IC50

Example cases with answers are listed next.
- compound: "CC1CN(c2ccc(-c3cc(N4CC[C@H](O)C4)nc(-c4cccnc4)n3)cn2)CC(C)O1 (some centres unmarked) [Example 302]"
  IC50: "> 1000 nM"
- compound: "O=S(=O)(CCO)N1CCN(c2cc(-c3ccc(Cl)cc3)nc(-c3cnsc3)n2)CC1 [Example 368]"
  IC50: "10 to 100 nM"
- compound: "O=C(CCO)N1CCN(c2cc(-c3ccc(Cl)cc3)nc(-c3cccnc3)n2)CC1 [Example 352]"
  IC50: "< 10 nM"

# IC50 of O[C@H]1CCN(c2cc(-c3ccc(Cl)cc3)nc(-c3ccnnc3)n2)C1 [Example 329] = 100 to 1000 nM

# IC50 of O[C@H]1CCN(c2cc(-c3ccc(Cl)cc3)nc(-c3cccnc3F)n2)C1 [Example 346] = 10 to 100 nM

====

target: UniProtKB P30561; test: In Vitro Assay 2: XRE-luciferase reporter assay, antagonism in mouse cell line (Hepa1c1c7); format: cell-based; settings: unmarked values: AhR activating ligand kynurenic acid, 6 hours, read-out: Assay 2: AhR-Luc Mouse Antagonism (IC50)
Overview of recorded IC50 for various molecules

- molecularString: "OC[C@H]1CN(c2cc(-c3ccc(C(F)(F)F)cc3)nc(-c3cccnc3)n2)C[C@@H]1O"
  valueMeasured: "< 10 nM"
- molecularString: "Cn1cc(-c2nc(-c3ccc(C(F)(F)F)cc3)cc(N3CC[C@@H](C(=O)O)C3)n2)cn1"
  valueMeasured: "> 1000 nM"
- molecularString: "OC[C@@H]1CCN(c2cc(-c3ccc(Cl)cc3)nc(-c3cccnc3)n2)C[C@H]1F"
  valueMeasured: "100 to 1000 nM"
- molecularString: "O[C@H]1CN(c2cc(-c3ccc(C(F)(F)F)cc3)nc(-c3cccnc3)n2)C[C@@H]1O"
  valueMeasured: "10 to 100 nM"
- molecularString: "OC[C@H]1CN(c2cc(-c3ccc(C(F)(F)F)cc3)nc(-c3cccnc3)n2)CCO1"
  valueMeasured: "10 to 100 nM"
- molecularString: "O=S(=O)(CCO)N1CCN(c2cc(-c3ccc(Cl)cc3)nc(-c3cccnc3)n2)CC1"
  valueMeasured: "< 10 nM"

Consider the record given below.
# IC50 of `O[C@H]1CCN(c2cc(-c3ccc(Cl)cc3)nc(-c3cccnc3)n2)C1` = < 10 nM
